# tested system: CK1δ(h) (Homo sapiens, UniProt P48730)
# Sequence (P48730 whole entry): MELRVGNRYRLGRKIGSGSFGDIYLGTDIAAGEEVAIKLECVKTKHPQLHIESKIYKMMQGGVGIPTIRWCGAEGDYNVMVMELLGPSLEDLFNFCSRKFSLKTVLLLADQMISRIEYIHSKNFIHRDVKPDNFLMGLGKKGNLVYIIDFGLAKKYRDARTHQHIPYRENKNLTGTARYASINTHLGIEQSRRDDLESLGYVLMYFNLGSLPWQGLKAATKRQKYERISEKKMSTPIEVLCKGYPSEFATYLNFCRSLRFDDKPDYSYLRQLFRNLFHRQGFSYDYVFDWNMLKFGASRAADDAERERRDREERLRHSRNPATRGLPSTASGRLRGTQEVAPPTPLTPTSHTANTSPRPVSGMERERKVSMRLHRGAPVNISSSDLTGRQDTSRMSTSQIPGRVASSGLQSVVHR
# test protocol: Kinase Profiling Assay
# Format: biochemical
# study conditions: 100 μM
As shown below, each of these sequences has a reported % activity value.
Reply with just the number (in %).

Worked set:
| sequence text | readout label | recorded result |
| --- | --- | --- |
| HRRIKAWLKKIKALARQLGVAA [MMI-0500] | % activity | 78 |
| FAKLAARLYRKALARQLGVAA [MMI-0300] | % activity | 92 |
| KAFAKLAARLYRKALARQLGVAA [MMI-0400] | % activity | 93 |

# context switch: different sequence, same % activity
Problem: Please report % activity for the following sequence: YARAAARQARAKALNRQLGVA [MMI-0200]
Result: 92
